test system: foxtail, giant (giant foxtail, Setaria faberii); test: Test A postemergence, visual injury rating 0-100; format: in vivo; conditions: 125 g ai/ha, 0 to 100 scale
valueKind: Foxtail, Giant plant response rating

>>> valuereported("COc1cc(C2CC(C)=[N+]([O-])C2C(=O)Nc2cccc(F)c2F)cc(C)n1 (racemic)")
40
>>> valuereported("CC1=[N+]([O-])C(C(=O)Nc2cccc(F)c2F)C(c2ccc(C(F)(F)F)cc2F)C1 (stereo not drawn)")
80
>>> valuereported("CC1=[N+]([O-])C(C(=O)Nc2cccc(F)c2F)C(c2cccc(Cl)c2F)C1 (stereo not drawn)")
60
>>> valuereported("COc1cc(OC)cc(C2CC(C)=[N+]([O-])C2C(=O)Nc2cccc(F)c2F)c1 (stereo not drawn)")
40
>>> valuereported("CC1=[N+]([O-])C(C(=O)Nc2cccc(F)c2F)C(c2cccc(Cl)n2)C1 (stereo not drawn)")
0
>>> valuereported("CC1=[N+]([O-])C(C(=O)Nc2cccc(F)c2F)C(c2cccc(Br)n2)C1 (racemic)")
0
>>> valuereported("CC1=[N+]([O-])C(C(=O)Nc2cccc(F)c2F)C(c2cc(C)cc(C(F)(F)F)c2)C1 (stereo not drawn)")
70
>>> valuereported("CC1=[N+]([O-])C(C(=O)Nc2cccc(F)c2F)C(c2ccc(=O)n(Cc3ccc(Cl)cc3)c2)C1 (racemic)")
0
>>> valuereported("CC1=[N+]([O-])C(C(=O)Nc2cccc(F)c2F)C(c2cc(C)cc(F)c2)C1 (racemic)")
80
>>> valuereported("CC1=[N+]([O-])C(C(=O)Nc2cccc(F)c2F)C(c2cccc(Cl)c2)C1 (racemic)")
80
>>> valuereported("CC1=[N+]([O-])C(C(=O)Nc2cccc(F)c2F)C(c2cccc3c2CCC3)C1 (racemic)")
50
>>> valuereported("CC1=[N+]([O-])C(C(=O)Nc2cccc(F)c2F)C(c2cc(F)ccc2C)C1 (racemic)")
60
>>> valuereported("CC1=[N+]([O-])C(C(=O)Nc2cccc(F)c2F)C(c2ccc(F)cc2Oc2ncc(F)cn2)C1 (racemic)")
0
>>> valuereported("CC1=[N+]([O-])C(C(=O)Nc2cccc(F)c2F)C(c2cccc(Oc3ccc(Cl)cn3)c2)C1 (racemic)")
40
>>> valuereported("CC1=[N+]([O-])C(C(=O)Nc2cccc(F)c2F)C(c2cc(C)cc(CF)c2)C1 (racemic)")
70

* * *

Overview of recorded Corn plant response rating for various molecules
test system: corn (Zea mays); assay: Test A postemergence, visual injury rating 0-100; assay type: in vivo; settings: 500 g ai/ha, 0 to 100 scale
valueKind: Corn plant response rating

>>> valuereported("CC1=[N+]([O-])C(C(=O)Nc2cccc(F)c2F)C(c2ccc3c(c2)OCO3)C1 (racemic) [Compound 4]")
60
>>> valuereported("CC1=[N+]([O-])C(C(=O)Nc2cccc(F)c2F)C(c2cccc(C3OCCO3)c2)C1 (racemic) [Compound 105]")
40
>>> valuereported("CC1=[N+]([O-])C(C(=O)Nc2cccc(F)c2F)C(c2ccccc2)C1 (racemic) [Compound 16]")
0
>>> valuereported("CC1=[N+]([O-])C(C(=O)Nc2cccc(F)c2F)C(c2cccc(C(F)(F)F)n2)C1 (stereo not drawn) [Compound 90]")
0
>>> valuereported("CC1=[N+]([O-])[C@H](C(=O)Nc2cccc(F)c2F)[C@@H](c2ccc(C(F)F)cc2)C1 (relative stereo) [Compound 93]")
90
>>> valuereported("CC1=[N+]([O-])C(C(=O)Nc2cccc(F)c2F)C(c2cc(C)ccc2C)C1 (racemic) [Compound 79]")
70
>>> valuereported("COc1cc(C2CC(C)=[N+]([O-])C2C(=O)Nc2cccc(F)c2F)ccc1C(F)(F)F (stereo not drawn) [Compound 100]")
70
>>> valuereported("CC1=[N+]([O-])C(C(=O)Nc2ccc(F)cc2F)C(c2ccc(C(F)(F)F)cc2)C1 (racemic) [Compound 46]")
40
>>> valuereported("CCc1cc(CC)cc(C2CC(C)=[N+]([O-])C2C(=O)Nc2cccc(F)c2F)c1 (racemic) [Compound 109]")
90
>>> valuereported("CC1=[N+]([O-])C(C(=O)Nc2cccc(F)c2F)C(c2cccc(C)c2)C1 (racemic) [Compound 15]")
90
>>> valuereported("CC1=[N+]([O-])C(C(=O)Nc2cccc(F)c2F)C(c2cc(C)cc(C(F)(F)F)c2)C1 (stereo not drawn) [Compound 92]")
80
>>> valuereported("CC1=[N+]([O-])C(C(=O)Nc2ccccc2)C(c2ccc(F)c(F)c2)C1 (racemic) [Compound 17]")
20
>>> valuereported("CC1=[N+]([O-])C(C(=O)Nc2cccc(F)c2F)C(c2ccc(C(F)(F)F)c(Cl)c2)C1 (racemic) [Compound 102]")
40
>>> valuereported("CC1=[N+]([O-])C(C(=O)Nc2cccc(F)c2F)C(c2ccc(Br)cc2)C1 (racemic) [Compound 20]")
0
>>> valuereported("CC1=[N+]([O-])C(C(=O)Nc2cccc(F)c2F)C(c2cc(C)c(F)c(C)c2)C1 (racemic) [Compound 111]")
90

* * *

system: foxtail, giant (giant foxtail, Setaria faberii); test: Test A postemergence, visual injury rating 0-100; format: in vivo; details: 500 g ai/ha, 0 to 100 scale
valueKind: Foxtail, Giant plant response rating

>>> valuereported("CC1=[N+]([O-])C(C(=O)Nc2cccc(F)c2F)C(c2cccc(C)n2)C1 (racemic)")
0
>>> valuereported("CC1=[N+]([O-])C(C(=O)Nc2cccc(F)c2F)C(c2ccc(F)c(Cl)c2)C1 (racemic)")
90
>>> valuereported("CC1=[N+]([O-])C(C(=O)Nc2cccc(F)c2F)C(c2cccc(C(F)(F)F)c2C)C1 (racemic)")
90
>>> valuereported("CC1=[N+]([O-])[C@H](C(=O)Nc2cccc(F)c2F)[C@@H](c2ccc(C)cc2)C1 (relative stereo)")
90
>>> valuereported("CC1=[N+]([O-])[C@@H](C(=O)Nc2cccc(F)c2F)[C@H](c2ccc(C(F)(F)F)cc2)C1 (relative stereo)")
90
>>> valuereported("CC1=[N+]([O-])C(C(=O)Nc2cccc(F)c2F)C(c2cc(C)cc(F)c2)C1 (racemic)")
90
>>> valuereported("CC1=[N+]([O-])C(C(=O)Nc2cccc(F)c2F)C(c2cccc(C(C)C)c2)C1 (racemic)")
90
>>> valuereported("CC1=[N+]([O-])C(C(=O)Nc2cccc(F)c2F)C(c2ccc(C(F)(F)F)c(Cl)c2)C1 (racemic)")
80
>>> valuereported("CC1=[N+]([O-])C(C(=O)Nc2cccc(F)c2F)C(c2cc(C)c(F)c(C)c2)C1 (racemic)")
90
>>> valuereported("CC1=[N+]([O-])C(C(=O)Nc2cccc(F)c2F)C(c2c(F)cccc2Cl)C1 (racemic)")
0
>>> valuereported("CC1=[N+]([O-])C(C(=O)Nc2cccc(F)c2F)C(c2cc(F)c(F)c(Oc3ncc(F)cn3)c2)C1 (racemic)")
80
>>> valuereported("CC1=[N+]([O-])C(C(=O)Nc2cccc(F)c2F)C(c2ccc(C(F)(F)F)c(C)c2)C1 (racemic)")
90
>>> valuereported("COc1cc(C2CC(C)=[N+]([O-])C2C(=O)Nc2cccc(F)c2F)cc(C)n1 (racemic)")
90
>>> valuereported("CC1=[N+]([O-])C(C(=O)Nc2cccc(F)c2F)C(c2cc(C)ccc2C)C1 (racemic)")
90
>>> valuereported("CC1=[N+]([O-])C(C(=O)Nc2cccc(F)c2F)C(c2cccc(Oc3ccc(Cl)cn3)c2)C1 (racemic)")
40
>>> valuereported("CC1=[N+]([O-])C(C(=O)Nc2cccc(F)c2F)C(c2cccc(C(F)(F)F)n2)C1 (stereo not drawn)")
90
>>> valuereported("CC1=[N+]([O-])C(C(=O)Nc2cccc(F)c2F)C(c2cc(C(F)(F)F)ccc2C)C1 (stereo not drawn)")
90
>>> valuereported("CC1=[N+]([O-])C(C(=O)Nc2cccc(F)c2F)C(c2cccc(F)c2C)C1 (racemic)")
90
>>> valuereported("CC1=[N+]([O-])C(C(=O)Nc2cccc(F)c2F)C(c2ccc(F)c(Oc3ncc(F)cn3)c2)C1 (racemic)")
90
>>> valuereported("CC1=[N+]([O-])C(C(=O)Nc2cccc(F)c2F)C(c2cccc3c2CCC3)C1 (racemic)")
90
>>> valuereported("CCC1=[N+]([O-])C(C(=O)Nc2cccc(F)c2F)C(c2ccc(C(F)(F)F)cc2)C1 (racemic)")
80
>>> valuereported("CC1=[N+]([O-])C(C(=O)Nc2cccc(F)c2F)C(c2cccc(Oc3ccc(F)cc3)c2)C1 (racemic)")
70
>>> valuereported("CC1=[N+]([O-])C(C(=O)Nc2cccc(F)c2F)C(c2cccc(Cl)n2)C1 (stereo not drawn)")
0
>>> valuereported("CC1=[N+]([O-])C(C(=O)Nc2cccc(F)c2F)C(c2ccccc2C)C1 (racemic)")
90
>>> valuereported("CC1=[N+]([O-])C(C(=O)Nc2cccc(F)c2F)C(c2ccc(C)c(Cl)c2)C1 (racemic)")
80
>>> valuereported("CC1=[N+]([O-])C(C(=O)Nc2cccc(F)c2F)C(c2cccc(Br)n2)C1 (racemic)")
20
>>> valuereported("CC1=[N+]([O-])C(C(=O)Nc2cccc(F)c2F)C(c2cc(F)cc(Oc3ccc(Cl)nc3)c2)C1 (racemic)")
50
>>> valuereported("CC1=[N+]([O-])C(C(=O)Nc2cccc(F)c2F)C(c2cc(C)cc(CF)c2)C1 (racemic)")
90
>>> valuereported("CC1=[N+]([O-])C(C(=O)Nc2cccc(F)c2F)C(c2ccc3c(c2)OCO3)C1 (racemic)")
90
>>> valuereported("COc1cc(C)cc(C2CC(C)=[N+]([O-])C2C(=O)Nc2cccc(F)c2F)c1 (stereo not drawn)")
90
